All values here come from the NIST ThermoML archive (doi:10.1021/je050402s).

assay: xn = mol fraction of the nth substance listed; details: 308.15 K; 100.5 kPa; Liquid; Capillary tube (Ostwald / Ubbelohde) method; x1 = 0.4
PROPERTY_LABEL: viscosity (mPa·s)

Known results for molecules:
>>> reported("CC(=O)OCc1ccccc1 [benzyl ethanoate] + CCO")
1.104
>>> reported("CCOC(=O)CC(C)=O [ethyl 3-oxobutanoate] + CCO")
0.898
>>> reported("COC(=O)c1ccccc1 [methyl benzoate] + CCO")
1.031

[1] CCC(=O)OCc1ccccc1 [benzyl propanoate] + CCO
[2] CCOC(=O)CC(C)C [ethyl 3-methylbutanoate] + CCO
Which record shows the lower viscosity: the first, 1 , or the second, 2 ? Mark your selection by writing its label.
2
